# Assay Explanation: binders of probe aFGF10 on microarray, primary screen, stem cell growth factor project, biochemical, small-molecule microarray, fluorescence 635/667 (AID 1071);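 further: score merges 667 nm spot intensity and signal to noise from triplicate slides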
# Test Parameters: higher = more signal
Below, each entry is listed alongside its reported composite z-score.

Exercise: Query composite z-score for `C=CCNC(=O)[C@@H]1[C@H]2C(=O)O[C@H](c3ccccc3)[C@H](c3ccccc3)N2[C@H](c2ccc(OCCO)cc2)[C@@]12C(=O)Nc1ccccc12`
Key: 0.405

Exercise: Name the recorded composite z-score of the item COC(=O)C1=CC(CCCO)=CC(C2CC2)N(Cc2sc3ccccc3c2Cl)C=C1C(=O)OC (stereo unspecified) in your answer.
Key: 0.889

Exercise: Answer with the recorded composite z-score of CCOc1cc(C(O)C2C=CC3C(=O)N(c4ccccc4)C(=O)C3N2Nc2ccc([N+](=O)[O-])cc2)ccc1O (stereo unspecified) only.
Key: 0.516

Exercise: Give the reported composite z-score for this molecule. `COc1ccc(CCNC(=O)[C@@H]2c3ccccc3C(=O)N(Cc3ccc(OC(F)(F)F)cc3)[C@H]2c2ccc(CO)cc2)cc1`
Key: 0.252

Exercise: Specify composite z-score for `C[C@]1(C(=O)NCc2ccccc2)c2ccccc2C(=O)N(Cc2ccc(OC(F)(F)F)cc2)[C@H]1c1ccc(CO)cc1` and stop.
Key: -0.0562

---

# Assay Explanation: E. coli growth modulation, two-sided OD650, primary screen, E. coli filamentation project, strain DRC41, 24 h (AID 1093);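 further: MC1000 strain lacking acrAB efflux and sulA so SOS filamentation is blocked; test concentration not given here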
# Test Parameters: OD650, 24 h, higher = more signal, called active from +8 up or from −8 down
Readout Kind: z-score
Just the number, please, no unit attached.

The examples below pair each entry with its known result.
| Compound | Recorded Result |
| --- | --- |
| O=C1O[C@@H](c2ccccc2)[C@@H](c2ccccc2)N2[C@@H](c3ccc(O)cc3)[C@]3(C(=O)Nc4ccc(C#CC5(O)CCCCCC5)cc43)[C@@H](C(=O)N3CCCCCCC3)[C@H]12 | 0.26 |
| Cc1ccc(F)cc1S(=O)(=O)N[C@@H]1CCN(Cc2ccc(-c3ccccc3)cc2)C1 | -19.9 |
| O=C1O[C@H](c2ccccc2)[C@H](c2ccccc2)N2[C@H]1[C@@H](C(=O)O)[C@]1(C(=O)Nc3ccc(C#CC4(O)CCCCCC4)cc31)[C@H]2c1ccc(OCCO)cc1 | -0.831 |
| COCCOC(=O)N1C(=O)[C@@]2(c3cc(C#CC4(O)CCCCCC4)ccc31)[C@H](C(=O)N1CCCCCCC1)[C@H]1C(=O)O[C@H](c3ccccc3)[C@H](c3ccccc3)N1[C@@H]2c1ccccc1OCCO | 0.431 |
| COc1c(C)cc(-c2cc3c(c(-c4ccc(Oc5ccccc5)cc4)n2)[Si](C(C)C)(C(C)C)OC3)cc1C | -1.38 |
| CC(C)CNC(=O)[C@@H]1c2ccccc2C(=O)N(Cc2cc(C(F)(F)F)cc(C(F)(F)F)c2)[C@H]1c1ccc(CO)cc1 | -0.381 |

Okay, now this compound:
Exercise: Tell me its z-score given `CC(C)N1C(=O)c2ccccc2[C@@H](C(=O)NCCCN(C)C)[C@@H]1c1ccc(CO)cc1` as the entry.
Key: -1.04

---

# System Name: Alpha-bungarotoxin (Bungarus multicinctus)
# Assay Explanation: alpha-bungarotoxin binders on microarray, profiling panel, artefact control for SMM control protein annotation, biochemical, small-molecule microarray, Alexa647 label, 635/667 nm fluorescence (AID 1117)
# Test Parameters: alpha-BTX-A647 binding fluorescence, higher = more signal
Readout Kind: composite z-score
A bare number is all that is needed in reply.

Below, 3 compounds whose answers are already recorded.
| Compound | System Name | composite z-score |
| --- | --- | --- |
| CCOC(=O)[C@H]1C[C@H]2O[C@@]23C[C@H]1C(=O)N1CCCC1[C@@H]3O[Si](C)(C)C(C)(C)C (some centres undefined) | Alpha-bungarotoxin (Bungarus multicinctus) | -0.789 |
| CCOC(=O)[C@H]1C/C=C/C[C@H](C(=O)OCC)C(=O)O[C@H]2[C@@H](OC)O[C@H](CO)[C@@H](OC(=O)Nc3ccc4c(c3)OCO4)[C@@H]2OC1=O | Alpha-bungarotoxin (Bungarus multicinctus) | 0.167 |
| COC(=O)C[C@@H]1C[C@H](C)[C@]2(O1)C(=O)N(Cc1ccccc1)c1ccc(NC(C)=O)cc12 | Alpha-bungarotoxin (Bungarus multicinctus) | -0.194 |

Exercise: Specify composite z-score for `Cc1ccc(S[C@]2(C(=O)NCc3ccccc3)CC(=O)N(Cc3ccccc3Cl)[C@@H]2c2ccc(CO)cc2I)cc1` and stop.
Key: 1.7

Exercise: State, in one line, measured composite z-score of `COc1ccc(CCNC(=O)[C@@]2(Sc3ccc(C)cc3)CC(=O)N(Cc3ccccc3Cl)[C@@H]2c2ccc(CO)cc2I)cc1`
Key: 0.42

---

# System Name: Alpha-bungarotoxin (Bungarus multicinctus) (UniProt P60615)
# Sequence (P60615 whole entry, looked up): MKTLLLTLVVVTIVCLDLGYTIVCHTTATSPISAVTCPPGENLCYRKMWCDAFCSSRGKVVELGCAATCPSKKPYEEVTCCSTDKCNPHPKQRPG
# Assay Explanation: alpha-bungarotoxin binders on microarray, profiling panel, artefact control for SMM control protein annotation, biochemical, small-molecule microarray, Alexa647 label, 635/667 nm fluorescence (AID 1117)
# Test Parameters: alpha-BTX-A647 binding fluorescence, higher = more signal
Readout Kind: composite z-score
# print the numeric value only

| Compound | composite z-score |
| --- | --- |
| Cc1ccc(S[C@]2(C(=O)NC3CC3)CC(=O)N(Cc3ccccc3)[C@@H]2c2ccc(CO)cc2)cc1 | 0.848 |
| CC(C)CNC(=O)[C@@H]1c2ccccc2C(=O)N(Cc2cc(C(F)(F)F)cc(C(F)(F)F)c2)[C@H]1c1ccc(CO)cc1 | -0.141 |
| CN1C(=O)C2C(C1=O)C1C=C(CCCO)C2C(c2cccs2)N1C (centres undefined) | -0.513 |

Then this compound:
Exercise: Look up composite z-score of C=CCC(OC(C)=O)[C@@H]1[C@@H](N(Cc2cccc3ccccc23)C(=O)c2ccc(C)cc2)c2cc(OCCCO)ccc2N1C(=O)Cc1ccc(OC)cc1 (some centres undefined) and report it.
Key: 0.215

---

# System: Neuregulin-1 EGF-like domain
# Assay Explanation: binders of neuregulin-1 EGF-like domain, primary screen, biochemical, small-molecule microarray, 635 nm fluorescence (AID 1081);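 further: binding of the protein to compounds printed on small-molecule microarray slides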
# Test Parameters: small-molecule microarray binding, higher = more signal
composite z-score vs 1: at or above is Met, below is Not met.

Exercise: Reported composite z-score reaches at least 1 for `C=C[C@H](C)[C@@H](O)c1ccc(O)c2ccccc12` ?
Key: Not met

Exercise: Has CC(C)(C)N1CC=CC23O[C@@H]4C=CCOC(=O)[C@@H]4[C@H]2C(=O)N(CCCCCO)[C@@H]3C1=O (some centres not stated) a recorded composite z-score greater than or equal to 1?
Key: Met

Exercise: Form field: composite z-score at least 1? Entry: `O=C(NCc1ccccc1)[C@]1(CCS(=O)(=O)c2ccccc2)N=C(c2ccc(OCCCO)cc2)O[C@@H]1c1ccccc1`
Key: Met

Exercise: Record `COC(=O)[C@@]1(Cc2ccc(OC)cc2)[C@H]2c3cc(C(=O)N4CCCC4)n(CCc4c[nH]c5cc(F)ccc45)c3C[C@H]2CN1C(=O)c1ccccc1` ; criterion: composite z-score no lower than 1. Met?
Key: Met

Exercise: Quick check: does O=C1OCC=C[C@H]2OC34C=CCN(c5ccc(Cl)cc5)C(=O)[C@H]3N(CCCCCCO)C(=O)[C@@H]4[C@@H]12 (some centres not stated) have composite z-score greater than or equal to 1?
Key: Met

Exercise: Is composite z-score at least 1? Consider `CCCCC=C[C@@H](NC(=O)c1ccc(C(=O)OC)cc1)c1ccccc1`
Key: Not met

---

# Assay Explanation: E. coli acrAB mutant growth effects, primary screen, E. coli filamentation inducers, strain DRC39, OD650, 48 h (AID 1179);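 further: screen aims at cell division blockers that make cells filament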
# Test Parameters: E. coli DRC39 delta-acrAB growth, higher = more signal, called active from +8 up or from −8 down
Readout Kind: z-score
Returns: the value as a bare number; no unit string appended.

| Compound | Readout Kind | Recorded Result |
| --- | --- | --- |
| COCCOC(=O)N1C(=O)[C@@]2(c3cc(C#CCCO)ccc31)[C@H](c1ccccc1OCCO)N1[C@H](c3ccccc3)[C@H](c3ccccc3)OC(=O)[C@H]1[C@@H]2C(=O)N1CCN(c2ncccn2)CC1 | z-score | -0.27 |

Exercise: Could you please provide reported z-score for `CCCNC(=O)[C@@]1(c2ccc([N+](=O)[O-])cc2)CC(=O)N(CC23CC4CC(CC(C4)C2)C3)[C@@H]1c1ccc(CO)cc1` ? Thanks!
Key: -0.391

---

# z-score annotations
# Assay Explanation: MM1S cell viability effects, profiling panel, calcein-AM fluorescence, 48 h, basal (AID 1165);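 further: viability of MM1S multiple myeloma cells under basal unstimulated conditions; test concentration not given here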
# Test Parameters: higher = more signal
Response field accepts a number only; no unit should be typed.

Below, each entry is followed by its recorded z-score result.
| Compound | Recorded Result |
| --- | --- |
| O=C1C2C=CC(C(O)c3ccc(-c4ccccc4)s3)N(n3cnnc3)C2C(=O)N1Cc1ccccc1 (stereo not given) | -0.593 |
| CN(C)CCCCNC(=O)[C@H]1C[C@H]2C(=O)N[C@@H](Cc3ccccc3)C(=O)N2[C@H]1c1ccc(O)cc1 | -0.417 |
| C=CCN1C(=O)[C@]2(O[C@H](CCO)[C@@H]([Si](C)(C)c3ccc(OC)cc3)[C@@H]2C)c2cc(NC(=O)[C@H](C)O)ccc21 | -2.85 |
| Cc1ccccc1C(O)C1C=CC2C(=O)N(C)C(=O)C2N1Nc1ccccc1 (stereo not given) | -0.143 |
| CC(C)C(=C=CC[C@H](O)c1cccc(OCCO)c1)C[C@H](O)COCc1ccccc1 | 0.0675 |

Exercise: Tell me measured z-score for `COC(=O)[C@@]1(Cc2ccccc2)[C@H]2c3cc(C(=O)N(C)C)n(Cc4c(-c5ccccc5)noc4C)c3C[C@H]2CN1C(=O)c1ccccc1` please.
Key: -1.05

Exercise: For the compound CCCCC(CC)C(O)C1C=CC2C(=O)N(c3ccccc3)C(=O)C2N1Nc1ccccc1 (stereo not given) , give its reported z-score.
Key: -0.137

Exercise: Return z-score for the following compound: `CCCCCCc1nc(CCCc2cc3c(c(CCCCCC)n2)[Si](C(C)C)(C(C)C)OC3)cc2c1[Si](C(C)C)(C(C)C)OC2`
Key: -3.28

Exercise: Given the compound C[C@H]1NC(=O)[C@H](Cc2ccccc2)NC(=O)[C@@]23C(=O)N[C@@H](Cc4ccccc4)C2[C@H](C)[C@@]2(C)O[C@H]2C3/C=C/C/C=C\CNC1=O (stereo not given in full) , write its reported z-score.
Key: -0.0775

Exercise: Input COC(=O)c1ccc(C23CC2(C(NP(=O)(c2ccccc2)c2ccccc2)c2ccccc2)C3)cc1 (stereo not given) , output reported z-score.
Key: -2.06

Exercise: In one line, give reported z-score of the entry COC(=O)c1ccc(C(O)C2C=CC3C(=O)N(c4ccccc4)C(=O)C3N2Nc2ccc(C#N)cc2)o1 (stereo not given) .
Key: -0.182

Exercise: Read the entry `[N-]=[N+]=Nc1ccccc1C[C@]1(C(=O)NCCN2CCOCC2)N=C(c2ccc(OCCCO)cc2)O[C@H]1c1ccccc1` and write its reported z-score.
Key: -0.0793

Exercise: In one line, give reported z-score of the entry `CC1=C2[C@@H](CCc3ccccc3)OB(O)C[C@@H]2n2c(=O)n(-c3ccccc3)c(=O)n2C1` .
Key: 0.271

Exercise: Give a short answer stating reported z-score for `O=c1oc(-c2ccccc2)nc2cc(Br)ccc12` .
Key: -1.99

Exercise: Identify measured z-score corresponding to CCOC(=O)C1=CCC(C(C)(C)C)N(S(=O)(=O)c2ccc(C)cc2)C1 (stereo not given)
Key: -2.31

Exercise: Consider the compound `Cc1ccc(S[C@]2(C(=O)NCC(C)C)CC(=O)N(Cc3ccccc3Cl)[C@@H]2c2ccc(CO)cc2)cc1` and give its recorded z-score.
Key: -0.226

Exercise: Consider the compound `O=C1C=CC(=O)[C@@H]2CC(COc3ccccc3)=C3[C@@H](CCc4ccccc4)OB(O)C[C@@H]3[C@H]12` and give its recorded z-score.
Key: -3.22

Exercise: Give a short answer stating reported z-score for `COc1ccc([Si](C)(C)[C@H]2[C@H](CC(=O)N(CCO)Cc3ccccc3)O[C@@]3(C(=O)N(Cc4cccc(N5CCC5=O)c4)c4ccccc43)[C@@H]2C)cc1` .
Key: -1.6

Exercise: Output measured z-score for this item: `C[C@]1(C(=O)NCc2ccccc2)c2ccccc2C(=O)N(Cc2ccc(OC(F)(F)F)cc2)[C@H]1c1ccc(CO)cc1`
Key: 0.318

Exercise: Please give the documented z-score of `COCCOC(=O)N1C(=O)[C@@]2(c3cc(C#CC4(O)CCCCCC4)ccc31)[C@H](C(=O)N1CCCCCCC1)[C@H]1C(=O)O[C@H](c3ccccc3)[C@H](c3ccccc3)N1[C@@H]2c1ccccc1OCCO`
Key: -0.658

Exercise: Give a short answer stating reported z-score for `COc1ccc(CCNC(=O)[C@@]2(Sc3ccc(C)cc3)CC(=O)N(Cc3ccccc3Cl)[C@@H]2c2ccc(CO)cc2I)cc1` .
Key: -1.41
